pIC50 by entry:
Molecular target: GST tagged PIP4KtypeIIB (Homo sapiens, UniProt P78356)
Sequence (P78356 1-416): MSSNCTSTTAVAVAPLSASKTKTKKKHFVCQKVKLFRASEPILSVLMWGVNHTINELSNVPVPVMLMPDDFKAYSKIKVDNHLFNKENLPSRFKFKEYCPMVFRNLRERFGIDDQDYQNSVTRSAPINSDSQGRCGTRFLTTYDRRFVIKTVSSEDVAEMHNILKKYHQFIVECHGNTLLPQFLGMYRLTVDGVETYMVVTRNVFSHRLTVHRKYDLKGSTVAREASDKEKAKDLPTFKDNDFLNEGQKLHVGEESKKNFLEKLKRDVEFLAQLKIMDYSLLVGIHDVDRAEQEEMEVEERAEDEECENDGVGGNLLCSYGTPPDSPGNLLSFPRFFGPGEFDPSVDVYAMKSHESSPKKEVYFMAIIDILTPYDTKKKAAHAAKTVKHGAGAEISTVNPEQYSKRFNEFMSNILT
pIC50: −log10 of the molar value.

{"SMILES_STR": "CN(C)C(=O)c1ccc(-c2cncc(-c3ccncc3)c2)cc1", "ASSAY_TARGET": "GST tagged PIP4KtypeIIB (Homo sapiens, UniProt P78356)", "pIC50": "< 5.30"}
{"SMILES_STR": "CC(C)c1cnnn1-c1ccc(-c2cncc(-c3ccnc4c3cc3n4CCN(c4ccccn4)C3=O)c2)cc1", "ASSAY_TARGET": "GST tagged PIP4KtypeIIB (Homo sapiens, UniProt P78356)", "pIC50": "8.00 to 9.00"}
{"SMILES_STR": "CC(C)n1cnnc1-c1ccc(-c2cncc(-c3ccnc4c3cc3n4CCN(Cc4ccncc4)C3=O)c2)cc1", "ASSAY_TARGET": "GST tagged PIP4KtypeIIB (Homo sapiens, UniProt P78356)", "pIC50": "8.00 to 9.00"}

Answer with the recorded pIC50 of Cn1cc(-c2ccc(N)nc2)c2cc(-c3cncc(-c4ccc(N5CCCC5=O)cc4)c3)cnc21 only.
6.00 to 7.00

----------
Molecular target: PIP4K2A (full length protein, SignalChem) (Homo sapiens)
pIC50: −log10 of the molar value.
REPORTED_METRIC: pIC50

The cases that follow already have their pIC50 on record.
{"COMPOUND": "CN(C)C(=O)c1ccc(-c2cncc(-c3ccnc4c3ccn4C)c2)cc1", "pIC50": "6.00 to 7.00"}
{"COMPOUND": "O=C1CCCN1c1ccc(-c2cncc(-c3ccncc3)c2)cc1", "pIC50": "5.60 to 6.00"}
{"COMPOUND": "O=C1CCCN1c1ccc(-c2cncc(-c3cc(C4CC4)nc4nncn34)c2)cc1", "pIC50": "6.00 to 7.00"}
{"COMPOUND": "CC(C)c1conc1-c1ccc(-c2cncc(-c3ccnc4c3cc3n4CCN(C)C3=O)c2)cc1", "pIC50": "6.00 to 7.00"}
{"COMPOUND": "CN1CCn2c(cc3c(-c4cncc(-c5ccc(N6CCC(C)(C)CC6=O)cc5)c4)ccnc32)C1=O", "pIC50": "5.60 to 6.00"}
{"COMPOUND": "O=C1CCCN1c1ccc(-c2cncc(-c3ccnc4cn[nH]c34)c2)cc1", "pIC50": "6.00 to 7.00"}
{"COMPOUND": "CN1CCn2c(cc3c(-c4cncc(-c5ccc(-c6nncn6C(C)(C)C)cc5)c4)ccnc32)C1=O", "pIC50": "7.00 to 8.30"}
{"COMPOUND": "Cn1cc2c(-c3cncc(-c4ccc(N5CCCC5=O)cc4)c3)c[nH]c(=O)c2n1", "pIC50": "7.00 to 8.30"}
{"COMPOUND": "O=C1CCCN1c1ccc(-c2cncc(-c3cnc4ncc(-c5cccnc5)n4c3)c2)cc1", "pIC50": "5.30 to 5.60"}
{"COMPOUND": "Cn1cc(-c2cncc(-c3ccc(N4CCCC4=O)cc3)c2)c2cc(N3CCCC3=O)cnc21", "pIC50": "7.00 to 8.30"}

Report its pIC50 with PIP4K2A (full length protein, SignalChem) (Homo sapiens) as the test system: CN(C)C(=O)c1ccc(-c2cc(-c3cnc4c(c3)c(-c3cncs3)cn4C)cnc2N)nc1
6.00 to 7.00

Give pIC50 for Nc1ncc(-c2ccnc3[nH]c(C(=O)NCc4ccccc4)cc23)cc1-c1ccc(C(=O)NCc2ccccc2)cn1 tested on PIP4K2A (full length protein, SignalChem) (Homo sapiens).
> 5.30

# return pIC50 of CN(C)C(=O)c1ccc(-c2cc(-c3cnc4c(c3)c(-c3cccnc3)nn4C)cnc2N)nc1 (system: PIP4K2A (full length protein, SignalChem) (Homo sapiens))
6.00 to 7.00

----------
Biological target: PIP4K2A (full length protein, SignalChem) (Homo sapiens, UniProt P48426)
Construct: 4 nM PIP4K2A (full length protein, SignalChem); purchased SignalChem
Sequence (P48426 whole entry): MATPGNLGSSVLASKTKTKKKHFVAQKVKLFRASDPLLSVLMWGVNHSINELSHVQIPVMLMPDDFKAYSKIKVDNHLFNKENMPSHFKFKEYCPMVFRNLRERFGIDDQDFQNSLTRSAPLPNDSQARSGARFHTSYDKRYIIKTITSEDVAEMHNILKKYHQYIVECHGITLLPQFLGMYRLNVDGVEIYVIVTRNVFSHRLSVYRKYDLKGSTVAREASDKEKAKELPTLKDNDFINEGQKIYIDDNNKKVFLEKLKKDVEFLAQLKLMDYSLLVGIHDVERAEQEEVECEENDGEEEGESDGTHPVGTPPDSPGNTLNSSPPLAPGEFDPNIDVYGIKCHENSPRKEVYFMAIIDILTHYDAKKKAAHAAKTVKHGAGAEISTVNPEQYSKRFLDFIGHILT
Assay: Kinase Assay PIP4K2 A (Sprint); ADP-Glo biochemical assay
Details: Table 2; compounds listed under IC50 range headings
Method: Dilution series of the compounds were prepared in DMSO at 100 times the final assay concentration (n1=n0/3 in 10 points). […] Then 3 μL of a solution containing 60 μM ATP (Promega) in assay buffer was added to the wells containing compound and enzyme and mixing was performed by pipetting several times. […] The reaction was incubated at room temperature for 40 min before the luminescence was measured in a in a Victor 3V 1420 multilabel counter (Perkin Elmer). […]
pIC50: −log10 of the molar value.
REPORTED_METRIC: pIC50

Some solved cases for reference:
{"SMILES_STR": "Cc1ccc2nc(CNC(=O)c3cc4c(-c5cncc(-c6ccc(N7CCCC7=O)cc6)c5)ccnc4[nH]3)[nH]c2c1", "REPORTED_METRIC": "pIC50", "TEST_VALUE": "5.60 to 6.00"}
{"SMILES_STR": "O=C(NC1COC1)c1cc2c(-c3cncc(-c4ccc(N5CCCC5=O)cc4)c3)ccnc2o1", "REPORTED_METRIC": "pIC50", "TEST_VALUE": "7.00 to 8.30"}
{"SMILES_STR": "Nc1ncc(Br)cc1-c1ccc(N2CCCC2=O)cn1", "REPORTED_METRIC": "pIC50", "TEST_VALUE": "> 5.30"}

Dear colleague, please send me the reported pIC50 for CN(C(=O)c1cc2c(-c3cncc(-c4ccc(N5CCCC5=O)cc4)c3)ccnc2[nH]1)c1cccnc1 when you can.
6.00 to 7.00

----------
Target: UniProt:P78356
pIC50: −log10 of the molar value.
REPORTED_METRIC: pIC50

Field: example entries. Status: answers known.
{"COMPOUND": "O=C(NCCc1cncs1)c1cc2c(-c3cncc(-c4ccc(N5CCCC5=O)cc4)c3)ccnc2[nH]1 [Example 298]", "pIC50": "7.00 to 8.00"}
{"COMPOUND": "Nc1ncc(-c2csc3ncccc23)cc1-c1ccc(N2CCCC2=O)cn1 [Example 23]", "pIC50": "6.00 to 7.00"}
{"COMPOUND": "CC(O)c1cnc2[nH]cc(-c3cncc(-c4ccc(N5CCCC5=O)cc4)c3)c2c1 (stereo not shown) [Example 48]", "pIC50": "7.00 to 8.00"}

Identify measured pIC50 associated with O=C(NCc1cccc2c1COB2O)c1cc2c(-c3cncc(-c4ccc(N5CCCC5=O)cc4)c3)ccnc2[nH]1 [Example 301]
7.00 to 8.00

Determine its reported pIC50: CN(C)C(=O)c1ccc(-c2cncc(-c3cnc4[nH]ccc4c3)c2)cc1 [Example 4]
5.30 to 5.60

Given the compound Cn1cc(-c2cncc(-c3ccc(N4CCCC4=O)cc3)c2)c2cnn(C)c2c1=O [Example 55] , write its reported pIC50.
6.00 to 7.00

Respond only with pIC50 recorded for Nc1ncc(-c2cccc3ncsc23)cc1-c1ccc(N2CCCC2=O)cn1 [Example 24]
5.60 to 6.00

Item Cn1ncc2c(-c3cncc(-c4ccc(N5CCCC5=O)cc4)c3)c[nH]c(=O)c21 [Example 158] : provide pIC50
6.00 to 7.00

Answer with reported pIC50 of Cc1cc(N2CCCC2=O)ccc1-c1cncc(-c2cn(C)c3ncc([C@@H](C)O)cc23)c1 (single isomer, unassigned) [197(R)]
5.60 to 6.00

# return recorded pIC50 for entry O=C(Nc1nccc(-c2cncc(-c3ccc(N4CCCC4=O)cc3)c2)n1)C1CCC1 [Example 287]
6.00 to 7.00

Answer with the recorded pIC50 of O=C(NCc1ncco1)c1cc2c(-c3cncc(-c4ccc(N5CCCC5=O)cc4)c3)ccnc2[nH]1 [Example 330] only.
7.00 to 8.00

Provide pIC50 value for the following compound: O=C(Nc1ccc(-c2cncc(-c3ccnc4[nH]ncc34)c2)cc1)C(=O)N1CC2CCC1C2 (stereo not shown) [Example 203]
5.30 to 5.60

Give pIC50 for the following compound: Cn1cc2c(-c3cncc(-c4ccc(N5CCCC5=O)cc4)c3)c[nH]c(=O)c2n1 [Example 159]
6.00 to 7.00
